run_description: CCTE_Deisenroth_AIME_96WELL_CTox_Active: Cytotoxicity Assessment (CTOX) in CCTE's 96-well Estrogen Receptor Transactivation Assay with AIME metabolic competence (metabolism positive), Deisenroth Lab (AID 2284028)
Records with an inconclusive call do not appear. Active and inactive are the calls of the source. Rule for the calls: active = hit-call score of the fitted dose curve at least 0.9, where 1 is the maximum; inconclusive = response in the unintended direction; inactive = score below 0.9.
Outcome field: choose from true (1) (active), false (0) (inactive)

Task: Hey, what did the test say about `Oc1ccc(C(c2ccc(O)cc2)C(Cl)(Cl)Cl)cc1` ?
Result: true (1)

Task: Outcome? `CCOC(=O)c1ccc(O)cc1`
Result: false (0)

Task: Recorded test outcome, item `C[C@]12C[C@H](O)[C@H]3[C@@H](CCC4=CC(=O)CC[C@@]43C)[C@@H]1CC[C@@H]2C(=O)CO`
Result: false (0)

Here is the next item to consider.
Task: Identify the outcome logged in this assay for the compound shown: `CC(=O)S[C@@H]1CC2=CC(=O)CC[C@]2(C)[C@H]2CC[C@@]3(C)[C@@H](CC[C@@]34CCC(=O)O4)[C@H]12`
Result: false (0)

Each recorded value in this set is attributed to PubChem BioAssay (EPA / NIEHS).
